Target: T1, IL-18 receptor (IL-18Rαβ) on cells (UniProt Q13478 19-541; O95256 20-599, limits assumed)
T1 sequence (looked up) 1: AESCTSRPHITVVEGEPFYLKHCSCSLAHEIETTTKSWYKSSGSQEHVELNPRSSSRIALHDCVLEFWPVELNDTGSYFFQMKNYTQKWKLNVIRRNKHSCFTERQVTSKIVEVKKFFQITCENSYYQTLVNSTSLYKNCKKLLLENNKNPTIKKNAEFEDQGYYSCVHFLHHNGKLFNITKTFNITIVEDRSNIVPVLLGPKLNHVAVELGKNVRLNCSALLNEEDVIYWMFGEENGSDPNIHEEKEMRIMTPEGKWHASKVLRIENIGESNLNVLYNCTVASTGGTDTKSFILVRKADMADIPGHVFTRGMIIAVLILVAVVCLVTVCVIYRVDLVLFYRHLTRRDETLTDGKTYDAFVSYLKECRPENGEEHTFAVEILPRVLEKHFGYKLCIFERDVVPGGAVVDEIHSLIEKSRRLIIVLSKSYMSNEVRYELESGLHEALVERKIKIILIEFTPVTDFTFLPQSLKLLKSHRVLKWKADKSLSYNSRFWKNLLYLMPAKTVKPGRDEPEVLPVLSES
T1 sequence (looked up) 2: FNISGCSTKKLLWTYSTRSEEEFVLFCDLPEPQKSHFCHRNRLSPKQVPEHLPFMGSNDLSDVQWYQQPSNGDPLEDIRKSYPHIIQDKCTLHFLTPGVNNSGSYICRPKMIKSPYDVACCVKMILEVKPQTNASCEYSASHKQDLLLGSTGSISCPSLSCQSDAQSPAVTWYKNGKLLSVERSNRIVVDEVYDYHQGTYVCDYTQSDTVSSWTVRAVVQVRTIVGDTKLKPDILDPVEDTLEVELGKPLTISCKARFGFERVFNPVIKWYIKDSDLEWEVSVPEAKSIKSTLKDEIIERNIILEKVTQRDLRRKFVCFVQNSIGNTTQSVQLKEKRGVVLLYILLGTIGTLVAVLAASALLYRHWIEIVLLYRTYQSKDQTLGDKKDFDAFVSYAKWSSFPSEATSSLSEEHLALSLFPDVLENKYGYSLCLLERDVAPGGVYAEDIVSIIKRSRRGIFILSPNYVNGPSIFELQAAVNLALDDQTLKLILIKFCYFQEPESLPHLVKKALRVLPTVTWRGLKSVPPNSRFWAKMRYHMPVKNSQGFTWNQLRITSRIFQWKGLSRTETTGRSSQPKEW
Assay: cell-based or functional assay
Listed below: EC50 (pM), HEK-Blue IL-18R reporter assay values for each entry.

C143 (V11I, C38A, K53A, C76A, C127A) (ligand) YFGKLESKLSIIRNLNDQVLFIDQGNRPLFEDMTDSDARDNAPRTIFIISMYADSQPRGMAVTISVKCEKISTLSAENKIISFKEMNPPDNIKDTKSDIIFFQRSVPGHDNKMQFESSSYEGYFLAAEKERDLFKLILKKEDELGDRSIMFTVQNED : 0.98 pM
C165 (V11I, C38A, S55R, C76A, C127A) (ligand) YFGKLESKLSIIRNLNDQVLFIDQGNRPLFEDMTDSDARDNAPRTIFIISMYKDRQPRGMAVTISVKCEKISTLSAENKIISFKEMNPPDNIKDTKSDIIFFQRSVPGHDNKMQFESSSYEGYFLAAEKERDLFKLILKKEDELGDRSIMFTVQNED : 1.91 pM

Please turn your attention to the following entry.
## Input # EC50 (pM), HEK-Blue IL-18R reporter assay lookup, item C163 (V11I, C38A, C76A, Q103K, C127A) (ligand) YFGKLESKLSIIRNLNDQVLFIDQGNRPLFEDMTDSDARDNAPRTIFIISMYKDSQPRGMAVTISVKCEKISTLSAENKIISFKEMNPPDNIKDTKSDIIFFKRSVPGHDNKMQFESSSYEGYFLAAEKERDLFKLILKKEDELGDRSIMFTVQNED
## Output 1.5 pM
